For each of the molecules below, state its Log k'.
test: Lipophilicity index (RP-HPLC pH 7); type: physicochemical; details: buffer
Give bare numbers.

Sample records with Log k':
1) CC(C)(C)OC(=O)N[C@@H](Cc1ccccc1)[C@H](O)CNC[C@@H](O)[C@H](Cc1ccc(OCCCc2nc3ccccc3o2)cc1)NC(=O)OC(C)(C)C :: 1.98
2) CC(C)(C)OC(=O)N[C@@H](Cc1ccccc1)[C@H](O)CNC[C@@H](O)[C@H](Cc1ccncc1)NC(=O)OC(C)(C)C :: 0.8
3) COCCCCOc1ccc(C[C@H](NC(=O)OC(C)(C)C)[C@H](O)CNC[C@@H](O)[C@H](Cc2ccccc2)NC(=O)OC(C)(C)C)cc1 :: 1.6
4) CC(C)(C)OC(=O)N[C@@H](Cc1ccccc1)[C@H](O)CNC[C@@H](O)[C@H](Cc1ccc(OCCN2CCOC2=O)cc1)NC(=O)OC(C)(C)C :: 0.82
5) CC(C)(C)OC(=O)N[C@@H](Cc1ccccc1)[C@H](O)CNC[C@@H](O)[C@H](Cc1ccc(OCC(O)c2ccccn2)cc1)NC(=O)OC(C)(C)C (stereo partly drawn) :: 0.81
6) CC(C)(C)OC(=O)N[C@@H](Cc1ccccc1)[C@H](O)CNC[C@@H](O)[C@H](Cc1ccc(OCCN2CCOCC2)cc1)NC(=O)OC(C)(C)C :: 1.18

I'm hoping you can list Log k' for every molecule here, please.
1. CC(C)(C)OC(=O)N[C@@H](Cc1ccccc1)[C@H](O)CNC[C@@H](O)[C@H](Cc1ccc(CCC(=O)N2CCOCC2)cc1)NC(=O)OC(C)(C)C
2. CC(C)(C)OC(=O)N[C@@H](Cc1ccccc1)[C@H](O)CNC[C@@H](O)[C@H](Cc1ccc(O)cc1)NC(=O)OC(C)(C)C
3. CC(C)(C)OC(=O)N[C@@H](Cc1ccccc1)[C@H](O)CNC[C@@H](O)[C@H](Cc1ccc(OCC(=O)N2CCCCC2)cc1)NC(=O)OC(C)(C)C
4. CC(C)(C)OC(=O)N[C@@H](Cc1ccccc1)[C@H](O)CNC[C@@H](O)[C@H](Cc1ccc(OCc2ccccc2)cc1)NC(=O)OC(C)(C)C
5. CC(C)(C)OC(=O)N[C@@H](Cc1ccccc1)[C@H](O)CNC[C@@H](O)[C@H](Cc1ccc(OCCc2ccccn2)cc1)NC(=O)OC(C)(C)C
6. CC(C)(C)OC(=O)N[C@@H](Cc1ccccc1)[C@H](O)CNC[C@@H](O)[C@H](Cc1cccc(OCc2ccccc2)c1)NC(=O)OC(C)(C)C

1: 1.03; 2: 0.79; 3: 1.33; 4: 2; 5: 1.39; 6: 2.04

Measured Log k', `CN1CCN(CCOc2ccc(C[C@H](NC(=O)OC(C)(C)C)[C@H](O)CNC[C@@H](O)[C@H](Cc3ccccc3)NC(=O)OC(C)(C)C)cc2)C1=O` : 1.04

###

Kindly supply the reported pIC50 values for the records listed here.
target: Human immunodeficiency virus type 1 protease (Human immunodeficiency virus 1); assay: Inhibitory activity against HIV-1 protease cleavage of [V-S-Q-N-(beta-naphthylalanine)-P-I-V)
One number for each entry, as −log10 of the molar value.

# count of solved cases: 8
1. CC(C)(C)OC(=O)N[C@@H](Cc1ccccc1)[C@H](O)CNC[C@@H](O)[C@H](Cc1ccc(OCCCN2CCOCC2=O)cc1)NC(=O)OC(C)(C)C :: 7.10
2. CC(C)(C)OC(=O)N[C@@H](Cc1ccccc1)[C@H](O)CNC[C@@H](O)[C@H](Cc1ccc(OCc2nc3ccccc3o2)cc1)NC(=O)OC(C)(C)C :: 6.49
3. CC(C)(C)OC(=O)N[C@@H](Cc1ccccc1)[C@H](O)CNC[C@@H](O)[C@H](Cc1ccc(OCC(O)c2ccccn2)cc1)NC(=O)OC(C)(C)C (stereo not given in full) :: 6.96
4. CC(C)(C)OC(=O)N[C@@H](Cc1ccccc1)[C@H](O)CNC[C@@H](O)[C@H](Cc1ccc(OCCN2CCOCC2)cc1)NC(=O)OC(C)(C)C :: 7.00
5. CC(O)COc1ccc(C[C@H](NC(=O)OC(C)(C)C)[C@H](O)CNC[C@@H](O)[C@H](Cc2ccccc2)NC(=O)OC(C)(C)C)cc1 (stereo not given in full) :: 7.31
6. CC(C)(C)OC(=O)N[C@@H](Cc1ccccc1)[C@H](O)CNC[C@@H](O)[C@H](Cc1ccc(OCC(=O)N2CCOCC2)cc1)NC(=O)OC(C)(C)C :: 7.00
7. CC(C)(C)OC(=O)N[C@@H](Cc1ccccc1)[C@H](O)CNC[C@@H](O)[C@H](Cc1ccc(OCCn2ccnc2)cc1)NC(=O)OC(C)(C)C :: 7.05
8. CC(C)(C)OC(=O)N[C@@H](Cc1ccccc1)[C@H](O)CNC[C@@H](O)[C@H](Cc1ccncc1)NC(=O)OC(C)(C)C :: 6.40

Please look at the items below and tell me pIC50 for each one, in order.
1. CC(C)(C)OC(=O)N[C@@H](Cc1ccccc1)[C@H](O)CNC[C@@H](O)[C@H](Cc1cccc(O)c1)NC(=O)OC(C)(C)C
2. CC(C)(C)OC(=O)N[C@@H](Cc1ccccc1)[C@H](O)CNC[C@@H](O)[C@H](Cc1ccc(OCCN2CCOC2=O)cc1)NC(=O)OC(C)(C)C

[6.70, 7.40]
